# target_or_system: human Thyroid Receptor alpha (THRa1), THRA (gene 7067)
# method_description: ATG_THRa1_TRANS: Attagene TRANS-FACTORIAL HepG2 Assay for human Thyroid Receptor alpha (THRa1) (AID 2283014)
Inconclusive results are not listed. Calls of active or inactive are those of the source. The calls were made as follows: active = hit-call score of the fitted dose curve at least 0.9, where 1 is the maximum; inconclusive = response in the unintended direction; inactive = score below 0.9.
metric_name: outcome

Example entries and their recorded answers appear below.
| compound | target_or_system | outcome |
| --- | --- | --- |
| CCOC(=O)N(C)N=O | human Thyroid Receptor alpha (THRa1), THRA (gene 7067) | inactive |
| CCC1CCC(=O)O1 (stereo not drawn) | human Thyroid Receptor alpha (THRa1), THRA (gene 7067) | inactive |
| CCOP(=O)(OCC)Oc1ccc([N+](=O)[O-])cc1 | human Thyroid Receptor alpha (THRa1), THRA (gene 7067) | inactive |
| C[N+](C)(C)CC(=O)[O-] | human Thyroid Receptor alpha (THRa1), THRA (gene 7067) | inactive |
| C=CCc1ccc(OC(=O)Cc2ccccc2)c(OC)c1 | human Thyroid Receptor alpha (THRa1), THRA (gene 7067) | inactive |
| Nc1ccccc1 | human Thyroid Receptor alpha (THRa1), THRA (gene 7067) | inactive |
| CN1C[C@H](C(=O)N[C@]2(C)O[C@@]3(O)[C@@H]4CCCN4C(=O)[C@H](Cc4ccccc4)N3C2=O)C=C2c3cccc4[nH]cc(c34)C[C@H]21 | human Thyroid Receptor alpha (THRa1), THRA (gene 7067) | inactive |
| O=P(O)(Oc1ccccc1)Oc1ccccc1 | human Thyroid Receptor alpha (THRa1), THRA (gene 7067) | inactive |

Note to self: outcome recorded for COC(=O)COc1ccc(Cl)cc1Cl was inactive

Note to self: outcome recorded for CC1CCC(=O)O1 (stereo not drawn) was inactive

Note to self: outcome recorded for Nc1ccccc1C(=O)Oc1ccc2ccccc2c1 was inactive

Note to self: outcome recorded for CC(C)[C@@H](C(=O)O[C@@H](C#N)c1cccc(Oc2ccccc2)c1)c1ccc(Cl)cc1 was inactive

Note to self: outcome recorded for ClC1=C(Cl)[C@]2(Cl)[C@@H]3[C@@H](Cl)[C@H](Cl)C[C@@H]3[C@@]1(Cl)C2(Cl)Cl was inactive

Note to self: outcome recorded for COc1ccc(CO)cc1 was inactive

Note to self: outcome recorded for [Cl-].[Cl-].[Cl-].[Yb+3] was inactive

Note to self: outcome recorded for O=c1[nH]c(Cl)c(Cl)cc1Cl was inactive

Note to self: outcome recorded for O=S(=O)(O)OOS(=O)(=O)O was inactive

Note to self: outcome recorded for Cl/C=C\CCl was inactive

* * *

# method_description: CCTE_Mundy_HCI_hNP1_CellTiter: CCTE's Cell Titer-Glo 2 Assay in human neuroprogenitor cells for Viability, Mundy Lab (AID 2284241);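 as to AC50: a hit is a drop in ATP luminescence versus DMSO meaning reduced viability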
Inconclusive results are not listed. Active and inactive are the calls of the source. The calls were made as follows: active = hit-call score of the fitted dose curve at least 0.9, where 1 is the maximum; inconclusive = response in the unintended direction; inactive = score below 0.9.
metric_name: AC50

| compound | result |
| --- | --- |
| CC1(C)[C@@H](C=C(Cl)Cl)[C@@H]1C(=O)O[C@@H](C#N)c1ccc(F)c(Oc2ccccc2)c1 | inactive |
| CCOP(=O)(Oc1cnc(C(C)(C)C)nc1)OC(C)C (stereo not given) | inactive |
| CC1(C)C(C=C(Cl)Cl)C1C(=O)O[C@H](C#N)c1cccc(Oc2ccccc2)c1 (stereo not given in full) | inactive |
| Cn1nc(C(F)(F)F)c(CS(=O)(=O)C2=NOC(C)(C)C2)c1OC(F)F | inactive |
| CCC[CH2][Sn]([CH2]CCC)([CH2]CCC)[O][Sn]([CH2]CCC)([CH2]CCC)[CH2]CCC | 0.0572 µM (active) |

Note to self: AC50 recorded for CC1(C)[C@H](C=C(Cl)Cl)[C@H]1C(=O)OCc1c(F)c(F)cc(F)c1F was 23.2 µM (active)

Note to self: AC50 recorded for Brc1ccc(Oc2ccc(Br)cc2Br)c(Br)c1 was inactive

Note to self: AC50 recorded for C[C@H](N)Cc1ccccc1 was inactive

Note to self: AC50 recorded for C#CCN(C)[C@H](C)Cc1ccccc1 was inactive

Note to self: AC50 recorded for C=CCN1CC[C@]23c4c5ccc(O)c4O[C@H]2C(=O)CC[C@@]3(O)[C@H]1C5 was inactive

* * *

# method_description: ATG_E_Box_CIS: Attagene CIS-FACTORIAL HepG2 Assay for human Enhancer Box (E-box) (AID 2282936)
# assay_conditions: HepG2 E-box cis-reporter transcription, actives raise or lower the signal
# Method: ATG_CIS is a cell-based, multiplexed-readout assay that uses HepG2, a human liver cell line, with measurements taken at 24 hours after chemical dosing in a 24-well plate.ATG_E_Box_CIS is one of 52 assay component(s) measured or calculated from the ATG_CIS assay. […] This assay endpoint, ATG_E_Box_CIS, was analyzed with bidirectional fitting relative to DMSO as the negative control and baseline of activity. […]
The source made the active and inactive calls. Rule for the calls: active = hit-call score of the fitted dose curve at least 0.9, where 1 is the maximum; inactive = score below 0.9.
Select the matching outcome among active, inactive

Example entries begin here.
| molecule | class_assignment |
| --- | --- |
| [N-]=[N+]=CC(=O)OC[C@H](N)C(=O)O | inactive |
| N#Cc1cccc(C#N)c1 | inactive |
| CC(C)C#N | inactive |
| O=C1C=CC(=O)C=C1 | inactive |
| CC1CCCC1.[C-]#[O+].[C-]#[O+].[C-]#[O+].[Mn] | active |

Test call, this molecule: CN1C(=O)CCS(=O)(=O)C1c1ccc(Cl)cc1 (stereo not drawn)
inactive

Test call, this molecule: O=[N+]([O-])c1ccc(Cl)cc1
inactive

Test call, this molecule: CC(=O)/C=C/c1ccccc1
inactive

* * *

# method_description: CCTE_Shafer_MEA_dev_AB: CCTE's Alamar Blue Assay for Cytotoxicity in the Neural Network Formation Assay, Shafer Lab (AID 2284083);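 also: resazurin reduction fluorescence as viability of cultured neurons; twelve days of exposure from plating with re-dosing on DIV 5 and 9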
Inconclusive results are not listed. Activity calls are given as the source filed them. The calls were made as follows: active = hit-call score of the fitted dose curve at least 0.9, where 1 is the maximum; inconclusive = response in the unintended direction; inactive = score below 0.9.
metric_name: AC50

Example entries and their recorded answers appear below.
| molecule | result |
| --- | --- |
| Brc1ccc(Oc2cc(Br)c(Br)cc2Br)c(Br)c1 | 13.6 µM (active) |
| CCOP(=O)(OCC)SCSCC | inactive |
| CC(=O)[O-].CC(=O)[O-].O.O.O.[Pb+2] | 24 µM (active) |
| CN1C(=O)CN=C(c2ccccc2)c2cc(Cl)ccc21 | inactive |
| C#CCN(C)[C@H](C)Cc1ccccc1 | inactive |

Note to self: AC50 recorded for CCOP(=O)(O)OCC (tested in a mixture with another compound) was inactive

Note to self: AC50 recorded for CC1(C)C(C=C(Cl)c2ccc(Cl)cc2)C1C(=O)OC(C#N)c1ccc(F)c(Oc2ccccc2)c1 (centres undefined) was 17.1 µM (active)

Note to self: AC50 recorded for CP(=O)(O)CC[C@H](N)C(=O)O was inactive

Note to self: AC50 recorded for [CH3][Sn]([CH3])[CH3] was 1.58 µM (active)

Note to self: AC50 recorded for NCCc1cc(O)c(O)cc1O was 9.87 µM (active)

Note to self: AC50 recorded for CC1(C)C(C=C(Cl)Cl)C1C(=O)O[C@H](C#N)c1cccc(Oc2ccccc2)c1 (some centres undefined) was 5.41 µM (active)

Note to self: AC50 recorded for CC1CCCC1.[C-]#[O+].[C-]#[O+].[C-]#[O+].[Mn] was inactive

Note to self: AC50 recorded for CCOP(=O)(Oc1cnc(C(C)(C)C)nc1)OC(C)C (centres undefined) was 11.7 µM (active)

Note to self: AC50 recorded for CCOP(=O)(OCC)OC(Cl)C(Cl)(Cl)Cl (centres undefined) was 2.24 µM (active)

Note to self: AC50 recorded for CN[C@]1(c2ccccc2Cl)CCCCC1=O was inactive

* * *

# target_or_system: PGR (gene 5241)
# method_description: TOX21_PR_BLA_Followup_Antagonist_ratio: Tox21 HEK293 Progesterone Receptor (PR) Antagonism Beta-lactamase Follow-Up Assay, Ratio (AID 2283934);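 also: PR-UAS-bla HEK293T cells stimulated with 1 nM R5020 agonist for 16 hr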
Calls of active or inactive are those of the source. The calls were made as follows: active = hit-call score of the fitted dose curve at least 0.9, where 1 is the maximum; inconclusive = response in the unintended direction; inactive = score below 0.9.
Select the matching outcome among 1 (active), -1 (inactive)

Example entries begin here.
| compound | class_assignment |
| --- | --- |
| C[C@]12CC[C@H]3[C@@H](CCC4=CC(=O)CC[C@@H]43)[C@@H]1CC[C@@H]2OC(=O)CCc1ccccc1 | -1 |
| Nc1ccc(Cl)cc1C(=O)c1ccccc1F | 1 |
| CCOP(=S)(OCC)Oc1cc(Cl)c(Br)cc1Cl | 1 |
| C[C@]12CC[C@H]3[C@@H](CCC4=CC(=O)CC[C@@H]43)[C@@H]1CC[C@@H]2OC(=O)CCc1ccco1 | -1 |
| CCC1COC(Cn2cncn2)(c2ccc(Cl)cc2Cl)O1 (configuration not stated) | 1 |
| C[C@H]1CCC[C@H](O)CCCCCc2cc(O)cc(O)c2C(=O)O1 | 1 |
| C#C[C@]1(O)CC[C@H]2[C@@H]3CCC4=CC(=O)CCC4=C3C=C[C@@]21CC | -1 |
| C=CC[C@]1(O)CC[C@H]2[C@@H]3CCC4=CC(=O)CCC4=C3C=C[C@@]21C | -1 |

Test call, this compound: C[C@]12C/C(=C/O)C(=O)C[C@@H]1CC[C@@H]1[C@@H]2CC[C@@]2(C)[C@H]1CC[C@]2(C)O
-1

Test call, this compound: C[C@]12CC[C@H]3[C@@H](CCC4=CC(=O)CC[C@@H]43)[C@@H]1CC[C@@H]2OC(=O)CCC1CCCCC1
-1

Test call, this compound: C[C@]12Cc3cn[nH]c3C[C@@H]1CC[C@@H]1[C@@H]2CC[C@@]2(C)[C@H]1CC[C@]2(C)O
-1

Test call, this compound: C[C@]12Cc3nonc3C[C@@H]1CC[C@@H]1[C@@H]2CC[C@@]2(C)[C@H]1CC[C@]2(C)O
-1
